# System: HeLa cells
# ASSAY REMARKS: mitotic defect phenotypes by immunofluorescence
# Format: cell-based
# SETUP CONDITIONS: 10 μM, 7 h
Please assign not fulfilled whenever Disorganized spindles (percentage of cells) is at or above 60%, and fulfilled whenever it is below.

The following molecules have reported results that may help.
INSERT INTO assay_data (molecule, label_class) VALUES
  ('COc1ccc(-c2oc3ccccc3c(=O)c2OS(=O)(=O)c2cc(OC)ccc2OC)cc1', 'not fulfilled'),
  ('CC1=CC(=O)C(C(C)C)=CC1=O', 'fulfilled'),
  ('Cc1cc(C(F)(F)F)cc(S(=O)(=O)CCOC(=O)c2cccc(Cl)c2)n1', 'fulfilled'),
  ('O=c1c(O)cccc2cc(O)c(O)c(O)c12 [PPG, purpurogallin, reference compound]', 'fulfilled');

Could you now look at the following molecule, please?
Exam item: Would you kindly verify if Disorganized spindles (percentage of cells) of COc1ccc(-c2oc3ccccc3c(=O)c2OS(=O)(=O)c2cc(Cl)ccc2Cl)cc1 is strictly less than 60%?
Marked response: not fulfilled

----------
# TARGET UNDER TEST: CRAF-BRAF (Homo sapiens, UniProt P04049+P15056)
# Construct: expressed in transfected cells; host or cells: HEK293T, transient transfection with PEI
# Sequence (P04049 whole entry): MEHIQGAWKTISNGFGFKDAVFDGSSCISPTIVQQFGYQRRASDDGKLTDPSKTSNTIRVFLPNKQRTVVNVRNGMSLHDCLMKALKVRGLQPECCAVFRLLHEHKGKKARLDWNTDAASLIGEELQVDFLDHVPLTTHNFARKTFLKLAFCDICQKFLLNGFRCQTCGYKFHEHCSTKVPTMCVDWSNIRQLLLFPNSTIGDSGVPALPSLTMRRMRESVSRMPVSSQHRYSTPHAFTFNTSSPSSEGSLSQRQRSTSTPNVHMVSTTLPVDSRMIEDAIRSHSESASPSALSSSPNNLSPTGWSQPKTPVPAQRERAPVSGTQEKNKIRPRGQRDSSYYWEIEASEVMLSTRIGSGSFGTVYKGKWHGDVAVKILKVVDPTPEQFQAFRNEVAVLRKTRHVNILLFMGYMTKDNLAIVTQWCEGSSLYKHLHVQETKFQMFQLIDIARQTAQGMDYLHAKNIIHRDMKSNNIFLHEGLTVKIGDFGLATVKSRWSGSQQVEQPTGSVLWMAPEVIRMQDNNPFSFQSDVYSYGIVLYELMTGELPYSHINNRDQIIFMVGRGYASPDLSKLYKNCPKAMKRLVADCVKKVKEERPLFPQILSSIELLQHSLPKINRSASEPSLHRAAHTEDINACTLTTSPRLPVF
# Sequence (P15056 whole entry): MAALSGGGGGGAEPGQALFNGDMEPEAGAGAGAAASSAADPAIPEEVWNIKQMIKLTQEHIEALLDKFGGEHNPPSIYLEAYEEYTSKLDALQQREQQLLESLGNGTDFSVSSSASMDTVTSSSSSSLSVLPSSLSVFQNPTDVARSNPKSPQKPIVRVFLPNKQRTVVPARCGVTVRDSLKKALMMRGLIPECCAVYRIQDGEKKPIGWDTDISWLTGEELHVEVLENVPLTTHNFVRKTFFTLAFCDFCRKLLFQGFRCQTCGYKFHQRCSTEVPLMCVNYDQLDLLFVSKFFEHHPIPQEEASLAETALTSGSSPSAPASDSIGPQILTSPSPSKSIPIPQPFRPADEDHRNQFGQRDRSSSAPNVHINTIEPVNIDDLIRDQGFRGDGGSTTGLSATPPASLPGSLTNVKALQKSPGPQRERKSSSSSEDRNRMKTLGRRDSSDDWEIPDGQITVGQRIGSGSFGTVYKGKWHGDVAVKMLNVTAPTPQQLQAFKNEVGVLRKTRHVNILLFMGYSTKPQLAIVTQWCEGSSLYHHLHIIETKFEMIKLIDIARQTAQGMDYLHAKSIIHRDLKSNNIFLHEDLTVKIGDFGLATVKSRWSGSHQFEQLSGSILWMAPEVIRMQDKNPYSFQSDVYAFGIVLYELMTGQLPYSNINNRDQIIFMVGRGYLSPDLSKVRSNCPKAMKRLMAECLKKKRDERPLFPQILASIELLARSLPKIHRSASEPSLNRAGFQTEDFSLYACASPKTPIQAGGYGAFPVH
# ASSAY REMARKS: control BRET CRAF-BRAF (transient)
# Type: cell-based
# SETUP CONDITIONS: confirmation screen
For each record, write down the corresponding Confirmation CRAF-BRAF (transient) % Quench RLuc.
Numbers only, in %.

INSERT INTO assay_data (compound_structure_string, output_unit, measured_result) VALUES
  ('Cc1cc(C(F)(F)F)cc(S(=O)(=O)CCOC(=O)c2cccc(Cl)c2)n1', '%', 80.17);

Please look at the items below and tell me Confirmation CRAF-BRAF (transient) % Quench RLuc for each one, in order.
1. COc1ccc(-c2oc3ccccc3c(=O)c2OS(=O)(=O)c2cc(OC)ccc2OC)cc1
2. N#Cc1cccnc1S(=O)(=O)CCOC(=O)c1cccc(Cl)c1
3. COc1ccc(-c2oc3ccccc3c(=O)c2OS(=O)(=O)c2cc(Cl)ccc2Cl)cc1
4. COc1ccc(-c2oc3ccccc3c(=O)c2OS(=O)(=O)c2ccccc2)cc1

Marked response:
1: 67.88; 2: 86.14; 3: 35.15; 4: 66.12

----------
# TARGET UNDER TEST: CRAF-BRAF (Homo sapiens, UniProt P04049+P15056)
# Construct: expressed in transfected cells; host or cells: HEK293T, transient transfection with PEI
# ASSAY REMARKS: control BRET CRAF-BRAF (transient)
# Type: cell-based
# SETUP CONDITIONS: confirmation screen
I'd be grateful if you could share measured Confirmation CRAF-BRAF (transient) % Inihibition for these entries.
One number for each entry, in %.

// worked examples, Confirmation CRAF-BRAF (transient) % Inihibition included
INSERT INTO measurements (molecule, output_unit, measured_result) VALUES
  ('Cc1cc(C(F)(F)F)cc(S(=O)(=O)CCOC(=O)c2cccc(Cl)c2)n1 [Cpd 16]', '%', 0.37),
  ('COc1ccc(-c2oc3ccccc3c(=O)c2OS(=O)(=O)c2cc(OC)ccc2OC)cc1 [Cpd 69]', '%', 7.18),
  ('N#Cc1cccnc1S(=O)(=O)CCOC(=O)c1cccc(Cl)c1 [Cpd 15]', '%', -4.59),
  ('COc1ccc(-c2oc3ccccc3c(=O)c2OS(=O)(=O)c2ccccc2)cc1 [Cpd 46]', '%', 19.45);

Okay, next one:
Record COc1ccc(-c2oc3ccccc3c(=O)c2OS(=O)(=O)c2cc(Cl)ccc2Cl)cc1 [Cpd 122] , field Confirmation CRAF-BRAF (transient) % Inihibition: 3.03

----------
# TARGET UNDER TEST: CRAF-BRAF (Homo sapiens, UniProt P04049+P15056)
# Construct: expressed in transfected cells; host or cells: HEK293T, transient transfection with PEI
# ASSAY REMARKS: control BRET CRAF-BRAF (transient)
# Type: cell-based
# SETUP CONDITIONS: 10-25 μM
Could you please report measured Primary screen CRAF-BRAF (transient) % Quench RLuc for the items listed next?
Answers are plain numbers, in %.

INSERT INTO assay_data (compound_structure_string, measured_result) VALUES
  ('COc1ccc(-c2oc3ccccc3c(=O)c2OS(=O)(=O)c2cc(Cl)ccc2Cl)cc1', 44.16),
  ('COc1ccc(-c2oc3ccccc3c(=O)c2OS(=O)(=O)c2cc(OC)ccc2OC)cc1', 72.42),
  ('N#Cc1cccnc1S(=O)(=O)CCOC(=O)c1cccc(Cl)c1', 81.13),
  ('COc1ccc(-c2oc3ccccc3c(=O)c2OS(=O)(=O)c2ccccc2)cc1', 63.54);

Continue with the next compound.
Measured Primary screen CRAF-BRAF (transient) % Quench RLuc, Cc1cc(C(F)(F)F)cc(S(=O)(=O)CCOC(=O)c2cccc(Cl)c2)n1 : 88.39

----------
# Test system: HeLa cells
# ASSAY REMARKS: mitotic defect phenotypes by immunofluorescence
# Format: cell-based
# SETUP CONDITIONS: 10 μM, 7 h
REPORTED METRIC: 2 > pericentrin foci (percentage of cells) (%)
Numbers only, in %.

Some solved entries appear below for comparison.
INSERT INTO results (compound, output_unit, measured_result) VALUES
  ('O=c1c(O)cccc2cc(O)c(O)c(O)c12 [PPG, purpurogallin, reference compound]', '%', 7),
  ('COc1ccc(-c2oc3ccccc3c(=O)c2OS(=O)(=O)c2cc(OC)ccc2OC)cc1', '%', 2),
  ('COc1ccc(-c2oc3ccccc3c(=O)c2OS(=O)(=O)c2cc(Cl)ccc2Cl)cc1', '%', 65);

For each listed entry, give its 2 > pericentrin foci (percentage of cells).
1. CC1=CC(=O)C(C(C)C)=CC1=O
2. Cc1cc(C(F)(F)F)cc(S(=O)(=O)CCOC(=O)c2cccc(Cl)c2)n1
3. CC1=CC(=O)C(C(C)C)=C/C1=N\OC(=O)c1ccccc1C

Marked response:
1. 33
2. 23
3. 27

----------
I'd appreciate it if you could supply Primary screen CRAF-BRAF (transient) % Inihibition values for the items below.
# TARGET UNDER TEST: CRAF-BRAF (Homo sapiens, UniProt P04049+P15056)
# Construct: expressed in transfected cells; host or cells: HEK293T, transient transfection with PEI
# ASSAY REMARKS: control BRET CRAF-BRAF (transient)
# Assay type: cell-based
# SETUP CONDITIONS: 10-25 μM
One number for each entry, in %.

INSERT INTO assay_data (compound_structure_string, target_under_test, output_unit, measured_result) VALUES
  ('N#Cc1cccnc1S(=O)(=O)CCOC(=O)c1cccc(Cl)c1', 'CRAF-BRAF (Homo sapiens, UniProt P04049+P15056)', '%', 31.50);

Please go through the list and note Primary screen CRAF-BRAF (transient) % Inihibition for each compound.
1. COc1ccc(-c2oc3ccccc3c(=O)c2OS(=O)(=O)c2cc(OC)ccc2OC)cc1
2. Cc1cc(C(F)(F)F)cc(S(=O)(=O)CCOC(=O)c2cccc(Cl)c2)n1
3. COc1ccc(-c2oc3ccccc3c(=O)c2OS(=O)(=O)c2cc(Cl)ccc2Cl)cc1
4. COc1ccc(-c2oc3ccccc3c(=O)c2OS(=O)(=O)c2ccccc2)cc1

Marked response:
1. 18.32
2. 52.83
3. -8.30
4. 16.40

----------
Exercise: state measured Confirmation Plk1-Map (stable) % Quench RLuc for each of the molecules provided.
# TARGET UNDER TEST: Plk1-Map interaction (Homo sapiens, UniProt P53350)
# Sequence (P53350 whole entry): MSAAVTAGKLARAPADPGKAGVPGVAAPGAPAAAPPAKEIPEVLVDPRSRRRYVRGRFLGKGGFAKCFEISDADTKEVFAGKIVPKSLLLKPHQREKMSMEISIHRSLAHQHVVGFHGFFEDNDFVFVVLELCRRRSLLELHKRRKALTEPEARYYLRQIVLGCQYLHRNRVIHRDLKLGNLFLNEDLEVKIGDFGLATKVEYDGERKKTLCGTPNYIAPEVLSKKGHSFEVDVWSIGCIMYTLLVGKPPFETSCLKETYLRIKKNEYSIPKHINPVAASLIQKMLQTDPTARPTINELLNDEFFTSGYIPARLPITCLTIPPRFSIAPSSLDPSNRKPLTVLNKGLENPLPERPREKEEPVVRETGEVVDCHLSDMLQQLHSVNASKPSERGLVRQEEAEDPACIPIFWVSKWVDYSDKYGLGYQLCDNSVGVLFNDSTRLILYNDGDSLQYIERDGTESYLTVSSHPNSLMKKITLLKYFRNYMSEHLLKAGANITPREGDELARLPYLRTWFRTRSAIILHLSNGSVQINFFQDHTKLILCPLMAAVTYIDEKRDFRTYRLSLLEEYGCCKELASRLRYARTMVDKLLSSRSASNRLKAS
# ASSAY REMARKS: BRET Plk1-Map, stable HEK293T Plk1-Luc/GFP-Map cell line
# Type: cell-based
# Design: cDNAs for the human full length Plk1; expressed in transfected cells
# SETUP CONDITIONS: confirmation screen
Value and unit, in that order.

INSERT INTO results (molecule, measured_result) VALUES
  ('COc1ccc(-c2oc3ccccc3c(=O)c2OS(=O)(=O)c2cc(OC)ccc2OC)cc1 [Cpd 69]', '91.91%');

For each of the molecules below, state Confirmation Plk1-Map (stable) % Quench RLuc.
1. COc1ccc(-c2oc3ccccc3c(=O)c2OS(=O)(=O)c2ccccc2)cc1 [Cpd 46]
2. N#Cc1cccnc1S(=O)(=O)CCOC(=O)c1cccc(Cl)c1 [Cpd 15]
3. COc1ccc(-c2oc3ccccc3c(=O)c2OS(=O)(=O)c2cc(Cl)ccc2Cl)cc1 [Cpd 122]
4. Cc1cc(C(F)(F)F)cc(S(=O)(=O)CCOC(=O)c2cccc(Cl)c2)n1 [Cpd 16]

Marked response:
1: 91.04%; 2: 78.03%; 3: 79.14%; 4: 81.37%
